Molecular target: DYRK1A (human) (UniProt Q13627)
Assay: radiometric filter-binding kinase assay
Conditions: compound 100.0 µM; ATP 50 µM
readout.name: inhibition (%)

compound=O=C(Nc1cnc2[nH]ccn2c1=O)c1ccccc1 endpoint_value=0
compound="CC1CN(c2nc3ccccn3c(=O)c2N)CC(C)O1 (stereo not given)" endpoint_value=36
compound=CC(C)(C)Nc1c(COCc2ccccc2)nc2[nH]cnn12 endpoint_value=30
compound=O=C(Nc1cnc2[nH]cnn2c1=O)c1ccccc1 endpoint_value=0
compound=CC(=O)Nc1nc2cnc(-c3ccccc3)cn2n1 endpoint_value=43
compound=COc1ccc(NC(=S)Nc2cnc3[nH]cnn3c2=O)cn1 endpoint_value=10
compound=CC(=O)Nc1nc2cnc(-c3c(C)cccc3C)cn2n1 endpoint_value=0
compound=O=c1cc(-c2ccccc2F)nc2[nH]ccn12 endpoint_value=31
compound=O=C(c1cccc(-c2cc3c(=O)[nH]cnc3s2)c1)N1CCOCC1 endpoint_value=52
compound=O=c1c(NC(=S)NCc2ccccc2)cnc2[nH]ccn12 endpoint_value=5
compound=Cc1cccc(C)c1-c1cn2nc(N)nc2cn1 endpoint_value=19
compound=Nc1nc2cnc(-c3ccccc3)cn2n1 endpoint_value=77
compound=CC(C)(C)Nc1c(C2CC2)nc2[nH]cnn12 endpoint_value=0
compound=COc1ccc(-c2cc3c(=O)[nH]cnc3s2)cc1OC endpoint_value=36
compound=Nc1cnc2c(-c3c(F)cccc3F)cccn2c1=O endpoint_value=55

###

System: SGK1 (human), O00141 [S422D]
Sequence (O00141 whole entry S422D, looked up): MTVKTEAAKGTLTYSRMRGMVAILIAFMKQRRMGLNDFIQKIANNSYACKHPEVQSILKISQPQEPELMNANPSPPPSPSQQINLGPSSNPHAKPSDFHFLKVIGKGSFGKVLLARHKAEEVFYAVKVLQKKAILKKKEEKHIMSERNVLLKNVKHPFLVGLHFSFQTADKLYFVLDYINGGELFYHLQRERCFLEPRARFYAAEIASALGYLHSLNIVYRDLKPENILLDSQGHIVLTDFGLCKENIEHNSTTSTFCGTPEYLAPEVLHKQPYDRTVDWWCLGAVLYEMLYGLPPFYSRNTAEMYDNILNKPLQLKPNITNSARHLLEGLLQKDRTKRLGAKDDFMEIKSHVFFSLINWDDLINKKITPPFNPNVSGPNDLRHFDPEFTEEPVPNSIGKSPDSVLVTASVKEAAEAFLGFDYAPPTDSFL
Assay: radiometric filter-binding kinase assay
Conditions: compound 100.0 µM; ATP 20 µM
Given measured inhibition, output 1 if it is greater than or equal to 10% and 0 if not.

molecule=O=C(Nc1cnc2[nH]ccn2c1=O)c1ccccc1 tgt="SGK1 (human), O00141 [S422D]" label=0
molecule="CC1CN(c2nc3ccccn3c(=O)c2N)CC(C)O1 (stereo not given)" tgt="SGK1 (human), O00141 [S422D]" label=0
molecule=CC(=O)Nc1nc2cnc(-c3ccccc3)cn2n1 tgt="SGK1 (human), O00141 [S422D]" label=1
molecule=O=C(c1cccc(-c2cc3c(=O)[nH]cnc3s2)c1)N1CCOCC1 tgt="SGK1 (human), O00141 [S422D]" label=1
molecule=O=C(Nc1cnc2[nH]cnn2c1=O)c1ccccc1 tgt="SGK1 (human), O00141 [S422D]" label=0
molecule=O=c1cc(-c2ccccc2F)nc2[nH]ccn12 tgt="SGK1 (human), O00141 [S422D]" label=1
molecule=Nc1nc2cnc(-c3ccccc3)cn2n1 tgt="SGK1 (human), O00141 [S422D]" label=1
molecule=O=c1c(NC(=S)NCc2ccccc2)cnc2[nH]ccn12 tgt="SGK1 (human), O00141 [S422D]" label=0
molecule=Nc1cnc2c(-c3c(F)cccc3F)cccn2c1=O tgt="SGK1 (human), O00141 [S422D]" label=0
molecule=COc1ccc(-c2cc3c(=O)[nH]cnc3s2)cc1OC tgt="SGK1 (human), O00141 [S422D]" label=1
molecule=COc1ccc(NC(=S)Nc2cnc3[nH]cnn3c2=O)cn1 tgt="SGK1 (human), O00141 [S422D]" label=0
molecule=CC(=O)Nc1nc2cnc(-c3c(C)cccc3C)cn2n1 tgt="SGK1 (human), O00141 [S422D]" label=0
molecule=CC(C)(C)Nc1c(COCc2ccccc2)nc2[nH]cnn12 tgt="SGK1 (human), O00141 [S422D]" label=0
molecule=CC(C)(C)Nc1c(C2CC2)nc2[nH]cnn12 tgt="SGK1 (human), O00141 [S422D]" label=0
molecule=Cc1cccc(C)c1-c1cn2nc(N)nc2cn1 tgt="SGK1 (human), O00141 [S422D]" label=1

###

Biological target: UniProt Q9BYT3
Sequence (Q9BYT3 whole entry, looked up): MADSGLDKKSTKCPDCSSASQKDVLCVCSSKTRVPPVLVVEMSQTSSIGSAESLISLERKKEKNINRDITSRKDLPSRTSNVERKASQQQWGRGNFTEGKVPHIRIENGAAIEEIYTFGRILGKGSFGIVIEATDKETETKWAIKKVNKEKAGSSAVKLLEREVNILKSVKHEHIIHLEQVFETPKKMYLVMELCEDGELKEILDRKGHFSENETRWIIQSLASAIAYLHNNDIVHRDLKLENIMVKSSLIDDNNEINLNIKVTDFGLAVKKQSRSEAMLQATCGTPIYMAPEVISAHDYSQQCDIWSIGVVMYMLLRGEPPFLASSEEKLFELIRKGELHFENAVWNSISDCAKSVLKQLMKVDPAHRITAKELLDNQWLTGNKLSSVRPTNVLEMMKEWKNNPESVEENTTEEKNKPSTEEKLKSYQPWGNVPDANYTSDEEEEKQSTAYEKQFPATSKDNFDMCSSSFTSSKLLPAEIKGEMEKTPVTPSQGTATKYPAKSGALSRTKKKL
Experiment: radiometric filter-binding kinase assay
Settings: compound 100.0 µM; ATP 50 µM
Recorded inhibition, one value per entry.
readout.name: inhibition (%)

compound=CC(=O)Nc1nc2cnc(-c3c(C)cccc3C)cn2n1 tgt="UniProt Q9BYT3" readout_name=inhibition endpoint_value=0
compound=O=C(c1cccc(-c2cc3c(=O)[nH]cnc3s2)c1)N1CCOCC1 tgt="UniProt Q9BYT3" readout_name=inhibition endpoint_value=0
compound=O=c1c(NC(=S)NCc2ccccc2)cnc2[nH]ccn12 tgt="UniProt Q9BYT3" readout_name=inhibition endpoint_value=13
compound=COc1ccc(-c2cc3c(=O)[nH]cnc3s2)cc1OC tgt="UniProt Q9BYT3" readout_name=inhibition endpoint_value=0
compound=CC(C)(C)Nc1c(C2CC2)nc2[nH]cnn12 tgt="UniProt Q9BYT3" readout_name=inhibition endpoint_value=0
compound=Nc1nc2cnc(-c3ccccc3)cn2n1 tgt="UniProt Q9BYT3" readout_name=inhibition endpoint_value=20
compound=Nc1cnc2c(-c3c(F)cccc3F)cccn2c1=O tgt="UniProt Q9BYT3" readout_name=inhibition endpoint_value=4
compound=CC(C)(C)Nc1c(COCc2ccccc2)nc2[nH]cnn12 tgt="UniProt Q9BYT3" readout_name=inhibition endpoint_value=0
compound=O=c1cc(-c2ccccc2F)nc2[nH]ccn12 tgt="UniProt Q9BYT3" readout_name=inhibition endpoint_value=12
compound=O=C(Nc1cnc2[nH]cnn2c1=O)c1ccccc1 tgt="UniProt Q9BYT3" readout_name=inhibition endpoint_value=0
compound=CC(=O)Nc1nc2cnc(-c3ccccc3)cn2n1 tgt="UniProt Q9BYT3" readout_name=inhibition endpoint_value=5
compound=O=C(Nc1cnc2[nH]ccn2c1=O)c1ccccc1 tgt="UniProt Q9BYT3" readout_name=inhibition endpoint_value=21
compound=COc1ccc(NC(=S)Nc2cnc3[nH]cnn3c2=O)cn1 tgt="UniProt Q9BYT3" readout_name=inhibition endpoint_value=15
compound="CC1CN(c2nc3ccccn3c(=O)c2N)CC(C)O1 (stereo not given)" tgt="UniProt Q9BYT3" readout_name=inhibition endpoint_value=8
compound=Cc1cccc(C)c1-c1cn2nc(N)nc2cn1 tgt="UniProt Q9BYT3" readout_name=inhibition endpoint_value=12

###

Molecular target: MARK3 (human)
Test: radiometric filter-binding kinase assay
Conditions: compound 100.0 µM; ATP 5 µM
readout.name: inhibition (%)

compound=O=C(c1cccc(-c2cc3c(=O)[nH]cnc3s2)c1)N1CCOCC1 tgt="MARK3 (human)" endpoint_value=29
compound=CC(C)(C)Nc1c(COCc2ccccc2)nc2[nH]cnn12 tgt="MARK3 (human)" endpoint_value=13
compound=COc1ccc(NC(=S)Nc2cnc3[nH]cnn3c2=O)cn1 tgt="MARK3 (human)" endpoint_value=17
compound=COc1ccc(-c2cc3c(=O)[nH]cnc3s2)cc1OC tgt="MARK3 (human)" endpoint_value=24
compound=CC(C)(C)Nc1c(C2CC2)nc2[nH]cnn12 tgt="MARK3 (human)" endpoint_value=0
compound=O=C(Nc1cnc2[nH]cnn2c1=O)c1ccccc1 tgt="MARK3 (human)" endpoint_value=5
compound=Nc1cnc2c(-c3c(F)cccc3F)cccn2c1=O tgt="MARK3 (human)" endpoint_value=86
compound=O=C(Nc1cnc2[nH]ccn2c1=O)c1ccccc1 tgt="MARK3 (human)" endpoint_value=12
compound=Cc1cccc(C)c1-c1cn2nc(N)nc2cn1 tgt="MARK3 (human)" endpoint_value=0
compound=Nc1nc2cnc(-c3ccccc3)cn2n1 tgt="MARK3 (human)" endpoint_value=59
compound=O=c1c(NC(=S)NCc2ccccc2)cnc2[nH]ccn12 tgt="MARK3 (human)" endpoint_value=9
compound=O=c1cc(-c2ccccc2F)nc2[nH]ccn12 tgt="MARK3 (human)" endpoint_value=11
compound=CC(=O)Nc1nc2cnc(-c3ccccc3)cn2n1 tgt="MARK3 (human)" endpoint_value=38
compound="CC1CN(c2nc3ccccn3c(=O)c2N)CC(C)O1 (stereo not given)" tgt="MARK3 (human)" endpoint_value=25
compound=CC(=O)Nc1nc2cnc(-c3c(C)cccc3C)cn2n1 tgt="MARK3 (human)" endpoint_value=0

###

Biological target: UniProt:Q9HBH9
Sequence (Q9HBH9 whole entry, looked up): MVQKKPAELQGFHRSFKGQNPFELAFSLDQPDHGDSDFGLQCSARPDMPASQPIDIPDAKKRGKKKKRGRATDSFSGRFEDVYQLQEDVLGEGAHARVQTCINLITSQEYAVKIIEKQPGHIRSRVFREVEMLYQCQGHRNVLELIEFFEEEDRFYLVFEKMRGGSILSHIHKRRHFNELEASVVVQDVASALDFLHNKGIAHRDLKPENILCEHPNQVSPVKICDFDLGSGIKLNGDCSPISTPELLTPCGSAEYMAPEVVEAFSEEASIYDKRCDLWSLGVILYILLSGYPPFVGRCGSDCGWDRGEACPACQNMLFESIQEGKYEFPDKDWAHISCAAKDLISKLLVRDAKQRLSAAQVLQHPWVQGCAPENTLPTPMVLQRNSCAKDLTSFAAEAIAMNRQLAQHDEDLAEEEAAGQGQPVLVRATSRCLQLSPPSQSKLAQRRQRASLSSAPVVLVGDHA
Assay: radiometric filter-binding kinase assay
Conditions: compound 100.0 µM; ATP 50 µM
Recorded inhibition, one value per entry.
readout.name: inhibition (%)

molecule=O=c1c(NC(=S)NCc2ccccc2)cnc2[nH]ccn12 tgt=UniProt:Q9HBH9 readout_name=inhibition endpoint_value=13
molecule=O=C(c1cccc(-c2cc3c(=O)[nH]cnc3s2)c1)N1CCOCC1 tgt=UniProt:Q9HBH9 readout_name=inhibition endpoint_value=30
molecule=Cc1cccc(C)c1-c1cn2nc(N)nc2cn1 tgt=UniProt:Q9HBH9 readout_name=inhibition endpoint_value=30
molecule=O=c1cc(-c2ccccc2F)nc2[nH]ccn12 tgt=UniProt:Q9HBH9 readout_name=inhibition endpoint_value=26
molecule="CC1CN(c2nc3ccccn3c(=O)c2N)CC(C)O1 (configuration not stated)" tgt=UniProt:Q9HBH9 readout_name=inhibition endpoint_value=0
molecule=CC(=O)Nc1nc2cnc(-c3c(C)cccc3C)cn2n1 tgt=UniProt:Q9HBH9 readout_name=inhibition endpoint_value=0
molecule=Nc1cnc2c(-c3c(F)cccc3F)cccn2c1=O tgt=UniProt:Q9HBH9 readout_name=inhibition endpoint_value=6
molecule=O=C(Nc1cnc2[nH]cnn2c1=O)c1ccccc1 tgt=UniProt:Q9HBH9 readout_name=inhibition endpoint_value=10
molecule=O=C(Nc1cnc2[nH]ccn2c1=O)c1ccccc1 tgt=UniProt:Q9HBH9 readout_name=inhibition endpoint_value=25
molecule=COc1ccc(-c2cc3c(=O)[nH]cnc3s2)cc1OC tgt=UniProt:Q9HBH9 readout_name=inhibition endpoint_value=21
molecule=CC(=O)Nc1nc2cnc(-c3ccccc3)cn2n1 tgt=UniProt:Q9HBH9 readout_name=inhibition endpoint_value=35
molecule=COc1ccc(NC(=S)Nc2cnc3[nH]cnn3c2=O)cn1 tgt=UniProt:Q9HBH9 readout_name=inhibition endpoint_value=0
